Test: Human HepG2 cell viability assay in 384 well format
Assay type: toxicity, cell-based
Set-up: dose 125 nL, time 70.5 hour; concentration not given beside the values
Settings: HepG2 cells, read-out: Inhibition
Record form. Attribute: cytotoxicity at 70.5 h. Fill in for each entry.
Answers are plain numbers, in %.

// worked examples, cytotoxicity at 70.5 h included
> print(dat)
                                   compound         outcome.measure  unit.label  obs.value
1  O=C(NCC(F)(F)F)C1CCC(=O)N(C2CCCC2)C1 (stereo unspecified)  cytotoxicity at 70.5 h           %       -3.8
2  CCN(CC(=O)NC)C(=O)c1cc(-c2cccc(Cl)c2)no1  cytotoxicity at 70.5 h           %      -2.85
3  Cc1cccc(OCC(O)CNCc2c(C)nn(C)c2N(C)C)c1 (stereo unspecified)  cytotoxicity at 70.5 h           %      -8.26
4  CS(=O)(=O)N1CCO[C@@H]2CCN(Cc3ccncc3)CC[C@H]21  cytotoxicity at 70.5 h           %      -6.06
5  COc1cccc(COCC(=O)N2CCCC(N3CCCC3)CC2)c1 (stereo unspecified)  cytotoxicity at 70.5 h           %       3.21

List reported cytotoxicity at 70.5 h for each of these compounds:
1. COCc1ncc(CN2CC[C@@H](NC(=O)c3cccnc3)[C@H](O)C2)cn1
2. O=C1OCCN1CCSc1nnnn1CC(F)(F)F
3. Cc1nc(C)n(CC2CCCN(CC(=O)NC3CCOCC3)C2)n1 (stereo unspecified)

[reply]
20.2
-5.39
3.14

====

Experiment: Human HepG2 cell viability assay in 384 well format
Format: toxicity, cell-based
Parameters: dose 125 nL, time 70.5 hour; concentration not given beside the values
Conditions: HepG2 cells, read-out: Inhibition
OUTCOME MEASURE: cytotoxicity at 70.5 h (%)
Give bare numbers, in %.

// worked examples, cytotoxicity at 70.5 h included
> print(dat)
                                   compound         outcome.measure  unit.label  obs.value
1  Nc1cc(-c2c[nH]nc2C2CCN(C(=O)C3CCCC3)C2)ccn1 (configuration not stated)  cytotoxicity at 70.5 h           %       5.65
2  COC(=O)C(C)(C)NC(=O)C1CC(=O)N(C2CCCC2)C1 (configuration not stated)  cytotoxicity at 70.5 h           %      -9.13
3  c1cnc(N2CCCC3(CCN(Cc4ccncc4)C3)C2)nc1 (configuration not stated)  cytotoxicity at 70.5 h           %      -13.2

List reported cytotoxicity at 70.5 h for each of these compounds:
1. Cc1nn(C)c(N(C)C)c1CNCc1cccc(Cl)c1
2. COc1ccc(Cl)cc1CCNC(=O)NCc1ccncc1
3. O=C(CSc1nc2nncc-2c(O)n1-c1ccccc1)N1CCOCC1
4. CCOc1ccnc(N2CCN(C(=O)c3ccoc3)CC2)n1
5. Cc1noc(C)c1CNc1cccc(C(=O)N2CCCC(O)C2)c1 (configuration not stated)

[reply]
[0.245, -0.665, -10.6, 18.6, -9.24]

====

Record form. Attribute: cytotoxicity at 70.5 h. Fill in for each entry.
Experiment: Human HepG2 cell viability assay in 384 well format
Assay type: toxicity, cell-based
Design: dose 125 nL, time 70.5 hour; concentration not given beside the values
Conditions: HepG2 cells, read-out: Inhibition
Write the figure, then the unit, nothing else.

// worked examples, cytotoxicity at 70.5 h included
> print(dat)
                                   molecule  obs.value
1   Cc1nccc(-c2cccc(NCC(=O)N3CCCCCCC3)c2)n1      17.3%
2  Cn1cc(C2CCCN2C(=O)CCCOCc2ccccc2)cn1 (stereo not drawn)      4.25%
3  O=C(c1cc(Cl)c2c(c1)OCO2)N1CCN(c2nccs2)CC1      1.39%
4         Cc1cnn(CCNCc2c(C(C)C)nn(C)c2Cl)c1     -2.72%

List reported cytotoxicity at 70.5 h for each of these molecules:
1. O=C(c1cccc(-n2cnnn2)c1)N1CCC2(CC1)OCCO2
2. CS(=O)(=O)NCC1(c2ccccc2Br)CC1
3. CS(=O)(=O)NCc1cnc2n1CCN(Cc1ccccn1)CC2
4. O=C(C[S+]([O-])Cc1c(F)cccc1Cl)N1CCc2sccc2C1 (stereo not drawn)

[reply]
1: -7.02%; 2: -5.81%; 3: -1.27%; 4: -6.1%

List reported cytotoxicity at 70.5 h for each of these molecules:
1. CCOCCCNC(=O)c1cc(OC)c2ccoc2c1
2. Cc1cscc1C(=O)Nc1cncnc1N(C)C
3. CC(C)(C)n1cc(C(=O)N2CCN(Cc3ccncc3)CC2)cn1

[reply]
["-1.75%", "-7.99%", "-2.1%"]

List reported cytotoxicity at 70.5 h for each of these molecules:
1. Cc1oc(C)c(C(=O)NS(=O)(=O)c2ccc3c(c2)OCCO3)c1Br
2. CC(=O)N[C@@H]1CN(Cc2nc3ccccc3[nH]2)C[C@H]1c1ccc(C)o1
3. COC(=O)CN(Cc1ccccc1C)C(=O)C1CCC1
4. Cc1occc(=O)c1OCc1noc(C(=O)NCC(C)C)n1
5. CCN(CC)CCn1ccnc1-c1cccc(O)c1
6. COCCC(=O)N1C[C@H]2CC[C@@H]1CN(C1Cc3ccccc3C1)C2
7. c1cncc(Cc2nnc3n2CCN(CC2CCOC2)CC3)c1 (stereo not drawn)
8. Cc1cc(C(=O)N2CCn3c(COCC4CCCC4)cnc3C2C)on1 (stereo not drawn)

[reply]
-17.9%
-8.75%
8.03%
-16.8%
1.22%
-10%
-10.7%
-15.4%

List reported cytotoxicity at 70.5 h for each of these molecules:
1. CN(C)CCN1CC(C(=O)N2CCC(c3nccn3C)CC2)CC1=O (stereo not drawn)
2. CN(C)CCN1CC[C@H]2[C@@H]1CCN2Cc1ccc2c(c1)OCO2
3. CN1CCN(Cc2ccc(-c3ccc(C(N)=O)cc3)nc2)CC1
4. COCCN(Cc1sccc1C)C(=O)COc1ccccc1O
5. CCOc1ncccc1CNC(=O)Nc1cc(C)nn1C
6. COCC(=O)NCc1cccc(OCCN(C)C2CCOCC2)c1
7. Cn1ccc2c(-c3cc(N4CCOCC4)ncn3)ccnc21
8. COc1cc(C(=O)N(CCC#N)Cc2ccccn2)ccc1C

[reply]
["6.94%", "-4.2%", "-7.94%", "-4.7%", "-4.27%", "-0.957%", "-6.11%", "2.05%"]

====

Assay: Human HepG2 cell viability assay in 384 well format
Format: toxicity, cell-based
Design: dose 125 nL, time 70.5 hour; concentration not given beside the values
Details: HepG2 cells, read-out: Inhibition
OUTCOME MEASURE: cytotoxicity at 70.5 h (%)
Give bare numbers, in %.

// worked examples, cytotoxicity at 70.5 h included
> print(dat)
                                   compound  unit.label  obs.value
1  COc1cc(N2C[C@H](C(=O)NCC3CC3)[C@@H]3CCO[C@@H]3C2)ncn1           %      -11.6
2          CCN(CC)CCCN1CCN(c2nc(C)cnc2C)CC1           %      -7.19
3  COCc1nc2ncc3c(=O)n(-c4ccc(OC)cc4)ccc3n2n1           %      -5.86
4  O=C(c1ccccc1)N1C[C@@H]2CC[C@H](C1)N(Cc1cc(F)ccc1Cl)C2           %         27
5        Cc1cnn(C2CN(CC(=O)NCc3ccccn3)C2)c1           %       16.5

List reported cytotoxicity at 70.5 h for each of these compounds:
1. Cc1nc(CN2CCO[C@H]3CN(C(=O)c4cccn4C)C[C@H]32)cs1
2. CC1CCN(c2ccnc3ccc(Br)cc23)CC1
3. CN(CCN1CCOCC1)C(=O)CCc1ccc(C(F)(F)F)cc1
4. COc1cc(CN[C@@H]2COC[C@H]2Cc2cc(C)no2)cc(OC)c1
5. CCc1cnc(CNC(=O)NC2CCN(C3CCCC3)CC2)s1
6. O=C(NCc1ccccc1-n1cccn1)C1CC2(CCNCC2)CN1 (stereo unspecified)

[reply]
5.54
2
10.6
-6.2
14
-1.74

====

Record form. Attribute: cytotoxicity at 70.5 h. Fill in for each entry.
Test: Human HepG2 cell viability assay in 384 well format
Assay type: toxicity, cell-based
Set-up: dose 125 nL, time 70.5 hour; concentration not given beside the values
Settings: HepG2 cells, read-out: Inhibition
Give bare numbers, in %.

// worked examples, cytotoxicity at 70.5 h included
> print(dat)
                                   molecule         outcome.measure  obs.value
1  COCCN1CCC1c1cc(NC2CCCC2)nc(C)n1 (stereo unspecified)  cytotoxicity at 70.5 h      -5.31
2  CS(=O)(=O)NC[C@H]1OC[C@H]2CN(Cc3ccsc3)CC[C@H]21  cytotoxicity at 70.5 h       2.09
3  Cn1ccnc1CN1CCCN(C(=O)c2ccc3c(c2)COC3)CC1  cytotoxicity at 70.5 h       5.68

List reported cytotoxicity at 70.5 h for each of these molecules:
1. CN1CCCCC1Cc1nc2c(cc1C(N)=O)CCC2 (stereo unspecified)
2. Cc1cnc(C(=O)N2C[C@H]3CN(Cc4cccs4)C[C@H]3C2)cn1
3. O=C(c1ccoc1)N1CCO[C@]2(CCC[C@@H]2COCc2cccnc2)C1
4. CCc1nccn1C1CCCN(C(=O)c2cncn2-c2ccccc2)C1 (stereo unspecified)
5. Cc1noc(CCCc2nc(C3CCOC3)no2)n1 (stereo unspecified)
6. Cc1nc2c(c(NCc3ccccc3)n1)CCN(C(=O)C1CCC1)CC2
7. CC(C)O[C@H]1CN(C(=O)CCN2CCCCO2)C[C@@H]1O

[reply]
[13.7, 8.68, -1.92, -6.28, -18.7, -6.11, 11.2]

[ask] Name the recorded cytotoxicity at 70.5 h for "O=S(=O)(CCNCc1ccc2c(c1)CCO2)N1CCOCC1" .
[reply] 12.8

Cited source: ChEMBL document CHEMBL3507680
